Values compiled from patent US20240400654A1.

Molecular target: HRgpA-6H (Porphyromonas gingivalis) (UniProt P28784)
Test: ELISA, coated HRgpA-6H
Label rule, in plain words: OD450 nm of 0.5 and up is Satisfied, under 0.5 is Not satisfied.

Binder | Cat
KB001 mouse Fab VH S30M (Fab, V domains shown) VH: EVQLKQSGPGLVAPSQSLSITCTVSGFSLMIYSVHWVRQPPGKGLEWLGMIWGGGSSDYNSALKSRLSISKDNSKSQVFLKMNSLQTDDTAMYYCARNGNFYAMDYWGQGTSVTVSS VL: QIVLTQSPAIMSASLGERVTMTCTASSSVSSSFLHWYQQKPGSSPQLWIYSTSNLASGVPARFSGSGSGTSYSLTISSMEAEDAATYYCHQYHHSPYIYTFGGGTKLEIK | Not satisfied
KB001 mouse Fab VH N60S (Fab, V domains shown) VH: EVQLKQSGPGLVAPSQSLSITCTVSGFSLSIYSVHWVRQPPGKGLEWLGMIWGGGSSDYSSALKSRLSISKDNSKSQVFLKMNSLQTDDTAMYYCARNGNFYAMDYWGQGTSVTVSS VL: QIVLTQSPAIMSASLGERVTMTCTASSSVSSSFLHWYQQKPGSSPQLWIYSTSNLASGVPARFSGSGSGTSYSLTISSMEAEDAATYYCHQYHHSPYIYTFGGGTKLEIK | Not satisfied
KB001 mouse Fab VL S53A (Fab, V domains shown) VH: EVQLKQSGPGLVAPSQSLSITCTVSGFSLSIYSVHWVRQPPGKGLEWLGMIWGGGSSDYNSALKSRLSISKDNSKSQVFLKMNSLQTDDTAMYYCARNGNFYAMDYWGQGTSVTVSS VL: QIVLTQSPAIMSASLGERVTMTCTASSSVSSSFLHWYQQKPGSSPQLWIYSTANLASGVPARFSGSGSGTSYSLTISSMEAEDAATYYCHQYHHSPYIYTFGGGTKLEIK | Satisfied
KB001 mouse Fab VL Y97E (Fab, V domains shown) VH: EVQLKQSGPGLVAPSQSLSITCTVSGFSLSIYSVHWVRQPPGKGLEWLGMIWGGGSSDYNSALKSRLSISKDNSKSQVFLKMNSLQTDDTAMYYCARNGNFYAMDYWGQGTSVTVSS VL: QIVLTQSPAIMSASLGERVTMTCTASSSVSSSFLHWYQQKPGSSPQLWIYSTSNLASGVPARFSGSGSGTSYSLTISSMEAEDAATYYCHQYHHSPEIYTFGGGTKLEIK | Satisfied
